biological target: T1, human PILRA G78 extracellular domain (recombinant hPILRA ECD) (human, UniProt Q9UKJ1 20-197); test: SPR, Biacore 8K; hPILRA ECD; antibody with wild-type Fc
T1 construct: also called hPILRA G78
T1 sequence (Q9UKJ1 20-197 R78G limits assumed): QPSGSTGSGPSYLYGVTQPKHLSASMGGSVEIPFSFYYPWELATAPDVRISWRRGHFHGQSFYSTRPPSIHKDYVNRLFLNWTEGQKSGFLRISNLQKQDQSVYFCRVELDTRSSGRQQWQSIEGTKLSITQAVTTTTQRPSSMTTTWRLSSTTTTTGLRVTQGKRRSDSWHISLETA
pKd: −log10 of the molar value.

>  <binder>
Anti-PILRA antibody clone 27 (antibody, V domains shown, Humanized) VH: EVQLVQSGAEVKKPGASVKVSCKASGYTFTEYYMYWVRQAPGQGLELIGRIDPEDGGTDYVEKFKNRATLTADTSTSTAYLELSSLRSEDTAVYFCASTIRGTVFVYWGQGTLVTVSS VL: DIQMTQSPSSLSASVGDRVTITCRPSEDIYNGLAWYQQKPGKAPKLLIYNANSLHTGVPSRFSGSGSGTDYTLTISSLQPEDFATYFCQQYYDYPLTFGQGTKVEIK

>  <pKd>
9.27

$$$$
>  <binder>
Anti-PILRA antibody clone 15 (antibody, V domains shown, Humanized; also called Ab.15) VH: EVQLVQSGAEVKKPGASVKVSCKASGYTFTEYYMYWVRQAPGQGLELIGRIDPEDGGTDYIEKFKNRSTLTADTSTSTAYLELSSLRSEDTAVYFCATTIRGTVFAFWGQGTLVTVSS VL: DIQMTQSPSSLSASVGDRVTITCRASEDIFNGLAWYQQKPGKSPKLLIYNAKTLHTGVPSRFSGSGSGSDYTLTISSLQPEDFATYFCQQYYDYPLTFGQGTKVEIK

>  <pKd>
9.04

$$$$
>  <binder>
Anti-PILRA antibody clone 12 (antibody, V domains shown, Humanized; also called Ab.12) VH: EVQLVQSGAEVKKPGASVKVSCKASGYTFTEYYMYWVRQAPGQGLELIGRIDPEDGGTDYIEKFKNRVTITADTSTSTAYLELSSLRSEDTAVYYCATTIRGTVFAFWGQGTLVTVSS VL: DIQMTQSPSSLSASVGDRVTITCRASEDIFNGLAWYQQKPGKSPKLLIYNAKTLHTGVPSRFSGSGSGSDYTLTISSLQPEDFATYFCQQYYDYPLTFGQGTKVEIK

>  <pKd>
8.80

$$$$
>  <binder>
Anti-PILRA antibody clone 29 (antibody, V domains shown, Humanized) VH: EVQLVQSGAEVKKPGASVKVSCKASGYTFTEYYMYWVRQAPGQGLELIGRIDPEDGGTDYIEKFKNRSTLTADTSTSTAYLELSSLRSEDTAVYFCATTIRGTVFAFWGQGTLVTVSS VL: DIQMTQSPSSLSASVGDRVTITCRASEDIFNGLAWYQQKPGKSPKLLIYNAKTLHTGVPSRFSGSGSGTDYTLTISSLQPEDFATYYCQQYYDYPLTFGQGTKVEIK

>  <pKd>
8.89

$$$$
>  <binder>
Anti-PILRA antibody clone 30 (antibody, V domains shown, Humanized) VH: EVQLVQSGAEVKKPGASVKVSCKASGYTFTEYYMYWVRQAPGQGLELIGRIDPEDGGTDYVEKFKNRVTLTADTSTSTAYLELSSLRSEDTAVYYCASTIRGTVFVYWGQGTLVTVSS VL: DIQMTQSPSSLSASVGDRVTITCRASEDIFNGLAWYQQKPGKSPKLLIYNAKTLHTGVPSRFSGSGSGTDYTLTISSLQPEDFATYYCQQYYDYPLTFGQGTKVEIK

>  <pKd>
9.06

$$$$
